Measured values drawn from patent US8618107B2 for this set.

Biological target: Btk (Homo sapiens (Human), UniProt Q06187)
Sequence (Q06187 whole entry): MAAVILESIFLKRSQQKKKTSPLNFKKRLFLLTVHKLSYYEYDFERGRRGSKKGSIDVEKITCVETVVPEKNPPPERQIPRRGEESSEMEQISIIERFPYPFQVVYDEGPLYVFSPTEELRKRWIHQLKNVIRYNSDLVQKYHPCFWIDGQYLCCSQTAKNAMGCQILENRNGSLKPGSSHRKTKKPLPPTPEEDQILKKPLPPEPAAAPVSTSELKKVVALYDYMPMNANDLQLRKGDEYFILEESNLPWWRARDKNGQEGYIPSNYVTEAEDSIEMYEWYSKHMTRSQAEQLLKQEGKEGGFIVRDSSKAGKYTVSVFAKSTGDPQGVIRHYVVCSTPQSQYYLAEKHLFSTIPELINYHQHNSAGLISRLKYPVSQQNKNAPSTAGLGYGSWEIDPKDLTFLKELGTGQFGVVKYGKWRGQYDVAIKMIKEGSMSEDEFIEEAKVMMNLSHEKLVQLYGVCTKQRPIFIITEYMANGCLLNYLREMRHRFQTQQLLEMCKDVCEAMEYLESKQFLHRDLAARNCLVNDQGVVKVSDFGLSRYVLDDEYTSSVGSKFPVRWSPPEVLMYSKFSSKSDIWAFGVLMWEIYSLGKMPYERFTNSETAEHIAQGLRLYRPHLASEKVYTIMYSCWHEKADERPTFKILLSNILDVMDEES
Test: standard biochemical Btk Kinase Assay (Example 901)
Details: Table 2
Listing: pIC50 of selected compounds
// returns pIC50 (minus log10 of molar concentration), number only

INSERT INTO assay_data (smiles_representation, test_readout, value_reported) VALUES
  ('CN1CC(Oc2ccc(Nc3cc(-c4cc(F)cc(N5CCn6c(cc7c6CCCC7)C5=O)c4CO)cn(C)c3=O)nc2)C1', 'pIC50', 8.01);

In: Name the recorded pIC50 for `Cn1cc(-c2cc(F)cc(N3CCn4c(cc5c4CC(C)(C)C5)C3=O)c2CO)cc(Nc2ccc(N3CCN(C4COC4)CC3)cn2)c1=O` .
Out: 8.11

In: Name the recorded pIC50 for `Cc1cc(Nc2cc(-c3cc(F)cc(N4CCn5c(cc6c5CC(C)(C)C6)C4=O)c3CO)cn(C)c2=O)n[nH]1` .
Out: 8.66

====

Target: Btk (Homo sapiens (Human))
Test: standard biochemical Btk Kinase Assay (Example 901)
Settings: Table 2
Listing: IC50 of selected molecules
Value expressed in nM; do not type the unit.

The examples below pair each entry with its known result.
INSERT INTO measurements (molecule, value_reported) VALUES
  ('CCN1CCc2nc(Nc3cc(-c4cc(F)cc(N5CCn6c(cc7c6CC(C)(C)C7)C5=O)c4CO)cn(C)c3=O)ccc2C1 [Example 284]', 2.8),
  ('CCN1CCn2nc(Nc3cc(-c4cc(F)cc(N5CCn6c(cc7c6CC(C)(C)C7)C5=O)c4CO)cn(C)c3=O)cc2C1 [Example 285]', 3.6);

Turning now to a further molecule:
In: Form field: IC50 recorded for Cn1cc(-c2cccc(N3CCc4c(sc5c4CCCC5)C3=O)c2CO)nc(Nc2ccc(C3CCN(C4COC4)CC3)cc2)c1=O [Example 305] with Btk (Homo sapiens (Human)) (enter value)
Out: 17.1

====

Listing: pIC50 of selected molecules
Target: UniProt Q06187
Test: standard biochemical Btk Kinase Assay (Example 901)
Settings: Table 2
// returns pIC50 (minus log10 of molar concentration), number only

INSERT INTO measurements (smiles_representation, value_reported) VALUES
  ('CN1CCC(c2ccc(Nc3nc(-c4cc(F)cc(N5CCc6c(sc7c6CCCC7)C5=O)c4CO)cn(C)c3=O)cc2)CC1', 8.28),
  ('Cn1cc(-c2cc(F)cc(N3CCn4c(cc5c4CCCC5)C3=O)c2CO)cc(Nc2cc3n(n2)CCOC3)c1=O', 8.30),
  ('Cn1cc(-c2cc(F)cc(N3CCn4c(cc5c4CCCC5)C3=O)c2CO)cc(Nc2ccc(C3CCN(C4COC4)CC3)cn2)c1=O', 8.55);

Turning now to a further molecule:
In: Name the recorded pIC50 for `CN1CCN(c2ccc(Nc3cc(-c4cccc(N5CCn6c(cc7c6CCCC7)C5=O)c4CO)nn(C)c3=O)nc2)CC1` .
Out: 8.15

====

TEST READOUT: melting point

The examples below pair each entry with its known result.
INSERT INTO assay_data (compound, test_readout, value_reported) VALUES
  ('Cn1cc(-c2cc(F)cc(N3CCc4c(sc5c4CC(C)(C)C5)C3=O)c2CO)cc(Nc2ccc(N3CCN(C4COC4)CC3)cn2)c1=O', 'melting point', '175 to 177 °C'),
  ('Cc1cc(Nc2cc(-c3cccc(N4CCc5c(cc6n5CCCC6)C4=O)c3CO)cn(C)c2=O)n[nH]1', 'melting point', '199 to 200 °C'),
  ('CN1CCCC1c1ccc(Nc2cc(-c3cc(F)cc(N4CCc5c(sc6c5CCCC6)C4=O)c3CO)cn(C)c2=O)nc1 (centres unmarked)', 'melting point', '164 to 166 °C'),
  ('CN1CCN(c2ccc(Nc3cc(-c4cccc(N5CCc6c(cc7n6CCCC7)C5=O)c4CO)cn(C)c3=O)nc2)CC1', 'melting point', '180 to 181 °C'),
  ('Cn1cc(-c2cccc(N3CCc4c(sc5c4CC(C)(C)C5)C3=O)c2CO)cc(Nc2cc3n(n2)CCOC3)c1=O', 'melting point', '167 to 168 °C');

In: Name the recorded melting point for `CC(C)N1CCN(c2ccc(Nc3cc(-c4cc(F)cc(N5CCc6c(sc7c6CC(C)(C)C7)C5=O)c4CO)cn(C)c3=O)nc2)CC1` .
Out: 191 to 192 °C

In: Name the recorded melting point for `Cn1cc(-c2cccc(-n3ccc4c5c(sc4c3=O)CC(C)(C)C5)c2CO)cc(Nc2ccncn2)c1=O` .
Out: 170 to 171 °C

In: Name the recorded melting point for `Cn1cc(-c2cccc(N3CCc4c(cc5n4CCCC5)C3=O)c2CO)cc(Nc2ccc(C3CNC3)cn2)c1=O` .
Out: 227 to 229 °C

In: Name the recorded melting point for `CN(C)CCN(C)c1ccc(Nc2cc(-c3cc(F)cc(N4CCc5c(sc6c5CCCC6)C4=O)c3CO)cn(C)c2=O)nc1` .
Out: 122 to 123 °C

In: Name the recorded melting point for `Cn1cc(-c2cccc(N3CCc4c(sc5c4CC(C)(C)C5)C3=O)c2CO)nc(Nc2cccnc2)c1=O` .
Out: 135 to 136 °C

In: Name the recorded melting point for `CN1CCN(c2ccc(Nc3cc(-c4cc(F)cc(N5CCc6c(sc7c6CC(C)(C)C7)C5=O)c4CO)cn(C)c3=O)nc2)CC1` .
Out: 143 to 145 °C
